- Experimental system: HLA-DR DRB1*0901 (human)
- Experiment summary: competition with 125I-labelled peptide for purified HLA-DR
Reported endpoint: pIC50
When answering, recall that pIC50 equals minus log10 of the concentration in mol/L, and write that number alone.

Just so you know, measured pIC50 for RREVHIYYLEKANKI (modifications not checked) [Flu.PA.127] came out at 6.07
